Reference source: PubChem BioAssay (NCI)

# Tested on: CAKI-1 renal
# ASSAY DETAILS: NCI tumour cell line growth inhibition, 48 h; in the data active means GI50 below about 0.43 µM; inactive means the rest
Your reply should match one of these outcome classes. active, inactive

Past entries and their recorded results:
COMPOUND	LABEL VALUE
C=C1C(=O)O[C@@H]2C1C[C@@H](O)C(=C)CC/C=C(\C)CCC[C@H](C)[C@H]2OC(C)=O (some centres not stated)	inactive
Cc1cc(O)cc(C)c1/C=C/c1cncc(-c2nn[nH]n2)c1	inactive
COc1cccc2c1c(C1=C(c3cn(C)c4ccccc34)C(=O)NC1=O)cn2C	inactive
CN(C)CCCNC(=O)c1cncnc1Nc1ccc(OCc2cccc(F)c2)c(Cl)c1	inactive
CNC(=O)Oc1cc(C)c(/C=C/c2cncc(C(=O)NC)c2)c(C)c1	inactive
COc1ccc(-c2nc(N3CCN(C(=O)C4CCCCC4)CC3)c3c4c(sc3n2)CCCC4)cc1	inactive
Cc1ncsc1-c1ccc(CNC(=O)[C@@H]2C[C@@H](O)CN2C(=O)[C@@H](NC(=O)C2(C#N)CC2)C(C)(C)C)cc1	inactive
N#CS.N=C=S.N=C=S.[Cu+2].[NH2-].[NH2-].[NH2-].[NH2-].c1ccc2ncccc2c1	inactive
Nc1c(C(=O)c2ccc(CCCN3CCOCC3)cc2)cnn1-c1ccc(F)cc1	inactive
C[C@H](CCCNCCCNCCCN)[C@H]1CC[C@H]2[C@@H]3[C@H](OCCCN)C[C@H]4C[C@H](OCCCN)CC[C@]4(C)[C@H]3C[C@H](OCCCN)[C@]12C	inactive

How was CCc1ccc2c(c1)N(CCO)C1=C(C(=O)OC1)C2c1cccc(Cl)c1 (configuration not stated) classified in this test?
inactive

Do the same for COc1cc(OC)c(NC(=O)c2cc3ccccc3cc2O)cc1Cl please
inactive

Then this compound: COC(=O)[C@H](Cc1ccc(O)cc1)NC(=O)[C@@H](OC)[C@@H]1Cc2cc3cc(OC4CC(OC5CC(O)C(O)C(C)O5)C(O)C(C)O4)c(C)c(O)c3c(O)c2C(=O)[C@H]1OC1CC(OC2CC(OC3CC(C)(O)C(O)C(C)O3)C(O)C(C)O2)C(O)C(C)O1 (some centres not stated)
inactive

And for CC1=C([Te]c2ccc(O)cc2)C(=O)c2ccccc2C1=O ?
inactive

Queued: COc1ccc(-c2c(-c3cc(OC)c(OC)c(OC)c3)noc2N)cc1
active

Repeat with CCC[CH2][Sn]1([CH2]CCC)[O]C(=O)c2ccc(C)cc2[O]1
active

Next compound up: Cc1cc(Oc2ccc3nc(COc4ccc(CC5SC(=O)NC5=O)cc4)n(C)c3c2)cc(C)c1N (configuration not stated)
inactive

###

# System: SK-OV-3 ovarian
# ASSAY DETAILS: NCI tumour cell line growth inhibition, 48 h
TGI overview
Only the number, expressed in µM, is required.

Answered cases to consult:
COMPOUND STRUCTURE STRING	TARGET SYSTEM	TGI / µM
C/C(=C(\c1ccc(OCCN2CCCCCC2)cc1)c1ccc(OC(=O)Cc2ccccc2)cc1)c1ccc(Cl)cc1	SK-OV-3 ovarian	15.6
CN1CCN(CCCCN2c3ccccc3Sc3cc(N=[N+]=[N-])ccc32)CC1	SK-OV-3 ovarian	22
Nc1nc(Nc2ccccc2)sc1C(=O)c1cccs1	SK-OV-3 ovarian	90.2
COc1cc(/C=C/C(=O)CC(=O)/C=C/c2ccc(O)c(OC)c2)ccc1O	SK-OV-3 ovarian	21

Can you look up the measured TGI of CC(C)(C)c1ccc(/C=N/NC(=O)CSCC(=O)N/N=C/c2ccc(C(C)(C)C)cc2)cc1 for me?
19.4

// repeat for COC(=O)/C=C\C(C#N)(C#N)N=Cc1ccc(Br)s1 and report
33.4

Likewise for Cc1ccc(-c2nc(N3CCCNCC3)c3oc(-c4ccccc4)nc3n2)cc1 ?
3.31

Note, next up: CC(=O)[C@@]1(O)[C@H](C)C[C@H]2[C@@H]3C=C(C)C4=Cc5c(cnn5-c5ccccc5)C[C@]4(C)[C@H]3[C@@H](O)C[C@@]21C
10.5

Then what about the compound c1ccc(CN=C(NCc2ccccc2)NCc2ccccc2)cc1 ?
23.6

###

# Tested on: SNB-19 CNS
# ASSAY DETAILS: NCI tumour cell line growth inhibition, 48 h
# Lookup of reported TGI keyed by entry

COMPOUND	TARGET SYSTEM	TGI
COc1cc(N(Cc2ccc3nc(OC)c(OC)nc3c2)Cc2ccc3nc(OC)c(OC)nc3c2)cc(OC)c1OC	SNB-19 CNS	47.7 µM

Query compound follows.
Find the recorded TGI belonging to COc1cccc(Cc2cc(=O)c3ccc(C)nc3[nH]2)c1 and report it.
> 100 µM

###

Catalogue of GI50 values
# System: MDA-MB-231 breast
# ASSAY DETAILS: NCI tumour cell line growth inhibition, 48 h

COMPOUND STRUCTURE STRING	GI50
CCOC(=O)[C@@H](C)C[C@H](Cc1ccccc1)NC(=O)c1csc([C@@H](C[C@H](C(C)C)N(C)C(=O)[C@H](CC)NC(=O)[C@H]2CCCCN2C)OC(C)=O)n1	0.00323 µM
O=C(/C(=C/c1ccc([N+](=O)[O-])cc1)SCc1ccc(F)cc1)c1ccc(Cl)cc1	4.37 µM

Form field: reported GI50 of N#CC1=C(N)NC(=S)NC12Nc1ccccc1N2
> 100 µM

###

Overview of recorded GI50 for various compounds
# Test system: HS 578T breast
# ASSAY DETAILS: NCI tumour cell line growth inhibition, 48 h

Known results for compounds:
COMPOUND	TARGET SYSTEM	GI50
N#CC1=C(N)NC(=S)NC12Nc1ccccc1N2	HS 578T breast	68.9 µM
O=C1OC(c2ccccc2)(c2cc(Br)c(O)c(Br)c2)c2ccccc21 (centres undefined)	HS 578T breast	18.5 µM
O=c1c2c3c(sc2nc(N/N=C/c2ccc(Br)cc2)n1Cc1ccccc1)CCCC3	HS 578T breast	> 100 µM
COc1ccc(-c2cc(-c3ccc(O)cc3)nc3n[nH]c(N)c23)cc1	HS 578T breast	19.6 µM
O=C(NN=C1CCCCC1)c1[nH]c2ccc(F)cc2c1-c1ccccc1	HS 578T breast	48.3 µM
C[C@H](CCCNCCCNCCCN)[C@H]1CC[C@H]2[C@@H]3[C@H](OCCCN)C[C@H]4C[C@H](OCCCN)CC[C@]4(C)[C@H]3C[C@H](OCCCN)[C@]12C	HS 578T breast	0.918 µM
C=C(CN1CCN(c2cccc(C(F)(F)F)n2)CC1)c1ccc(C(=S)Nc2ccccc2N)cc1	HS 578T breast	3.52 µM
C=C1C(=O)O[C@@H]2C1C[C@@H](O)C(=C)CC/C=C(\C)CCC[C@H](C)[C@H]2OC(C)=O (some centres undefined)	HS 578T breast	10.3 µM

# lookup: GI50 of N#CS.N=C=S.N=C=S.[Cu+2].[NH2-].[NH2-].[NH2-].[NH2-].c1ccc2ncccc2c1
29.4 µM

###

# Test system: NCI-H23 lung
# ASSAY DETAILS: NCI tumour cell line growth inhibition, 48 h
QUANTITY NAME: log10 TGI (log10 of the value in µM)
Scale: log10; quantity: TGI; unit before log: µM

Some compounds with recorded log10 TGI:
COMPOUND	TARGET SYSTEM	log10 TGI
CN(C)CCCCN1c2ccccc2Sc2ccc(C(=O)c3ccccc3)cc21	NCI-H23 lung	1.53
COc1ccc(CNc2nc3cc(N)cc(N)c3nc2-c2ccccc2)cc1	NCI-H23 lung	1.54
O=C(/C(=C/c1ccc([N+](=O)[O-])cc1)SCc1ccc(F)cc1)c1ccc(Cl)cc1	NCI-H23 lung	1.84
CCC[CH2][Sn]1([CH2]CCC)[O]C(=O)c2ccc(C)cc2[O]1	NCI-H23 lung	0.25
C[C@H](CCCNCCCNCCCN)[C@H]1CC[C@H]2[C@@H]3[C@H](OCCCN)C[C@H]4C[C@H](OCCCN)CC[C@]4(C)[C@H]3C[C@H](OCCCN)[C@]12C	NCI-H23 lung	1.03

In the following, a different compound is considered.
Item under review: CCCCCCCC(=O)OCC1OC(OC)C(NC(=O)N(CCCl)N=O)C(O)C1O (stereo not drawn) . Reported log10 TGI?
1.47

###

# System: TK-10 renal
# ASSAY DETAILS: NCI tumour cell line growth inhibition, 48 h
QUANTITY NAME: TGI

Here is how some compounds turned out for TGI.
COMPOUND	TGI
CCOC(=O)/C(=C(/C)NCC(C)C)c1cc(O)c(O)c2c(C)cc(=O)[nH]c12	68.3 µM
COC(=O)c1c2c(cc3c1CC1(Cc4cc5c(cc4C1=O)CCC5)C3)CCC2 (stereo unspecified)	> 100 µM

Request the reported TGI associated with CC(=O)NNC(=O)C1CCCCN1 (stereo unspecified)
> 100 µM

Here is the next compound: Nc1c(C(=O)c2ccc(CCCN3CCOCC3)cc2)cnn1-c1ccc(F)cc1
> 25 µM

Try O=C1OCc2cc3cc4c(cc3c(-c3ccc5c(c3)OCO5)c21)OCO4 (tested in a mixture with another compound) next.
50.8 µM

How about this compound: Clc1cc(Br)c2c3c(c(Br)cc(Cl)c13)C(Br)=C2Br
46.6 µM

# iterate: O=c1[nH]cnc2c1ncn2[C@@H]1C[C@H]1CO
> 100 µM

And what about the compound CC(C)N1CN(C(C(=O)N[C@@H]2C(=O)N3C2SC(C)(C)C3C(=O)O)c2ccc(O)cc2)CSC1=S (stereo partly specified) ?
> 100 µM

Then COC1O[C@H]2[C@H]3[C@@H]1[C@@H](OS(=O)(=O)c1ccc(C)cc1)C(=O)N3C[C@H]2O (stereo partly specified) ?
> 100 µM

Now consider CCN(CC)CCCC(C)N=c1cc(Nc2cc(=NC(C)CCCN(CC)CC)c3cc(OC)ccc3o2)oc2ccc(OC)cc12 (stereo unspecified) and answer again.
3.22 µM

Next up: COC(=O)c1ccc(Cl)cc1NC(=O)C1CCCCC1
> 100 µM

Also check O=C(NCc1ccco1)c1ccc(NC2=C(Cl)C(=O)N(Cc3ccccc3)C2=O)cc1
76.7 µM

Next up: COc1cc(Nc2nc3ccc(C(F)(F)F)cc3nc2C(=O)O)cc(OC)c1OC
62.2 µM

What about this compound? CCCCCCCCCCCCOC1C(C(CC(=O)N2CCN(c3cccc(C(F)(F)F)c3)CC2)NS(=O)(=O)c2cc(Cl)cc(Cl)c2)OC2OC(C)(C)OC21 (stereo unspecified)
> 100 µM

What do you have for CC(=O)OCCOc1cc2c([nH]c3ccccc32)c(C)c2cccc1-2 ?
5.4 µM

And then COc1ccc(-c2nc(N3CCN(C(=O)C4CCCCC4)CC3)c3c4c(sc3n2)CCCC4)cc1 , what is it?
90.8 µM

Next record, please: COc1cccc(Cc2cc(=O)c3ccc(C)nc3[nH]2)c1
> 100 µM

Also CCc1ccc2c(c1)N(CCO)C1=C(C(=O)OC1)C2c1cccc(Cl)c1 (stereo unspecified) , if possible.
28.8 µM

Record: CC1=C[P+](Cc2ccccc2)(c2ccccc2)CC1 (stereo unspecified)
> 100 µM

Quick one: CNC(=O)Oc1cc(C)c(/C=C/c2cncc(C(=O)NC)c2)c(C)c1
> 25 µM

Next up: COc1cc(S(=O)(=O)Nc2nc(-c3ccc(N4C(=O)/C(=C/c5ccccc5[N+](=O)[O-])N=C4c4ccccc4)cc3)cs2)ccc1Cl
> 100 µM

Lookup Cc1cc(-c2nc3ccc(F)cc3s2)ccc1N
> 100 µM

CC[C@]12C=CCN3CC[C@@]4(c5cc(Br)c(OC)cc5N(C)[C@H]4[C@@](O)(C(=O)N[C@@H](Cc4ccc(O)cc4)C(=O)OC)[C@@H]1O)[C@@H]32 , same question.
79.5 µM

Then this compound: O=C(NCC(O)CNC(=O)C(F)(F)F)C(F)(F)F
> 100 µM
